Give activity coefficient for every item shown.
assay: activity coefficient (dimensionless); of the first substance listed, at infinite dilution; xn = mol fraction of the nth substance listed
measurementSetup: 328.15 K; 101.33 kPa; Liquid; Chromatography; x1 = 0

compound: CCOC(C)(C)C [2-ethoxy-2-methylpropane] + CCCCCCCCCCCC[N+](C)(C)CCOc1ccccc1.N#C[N-]C#N
activity coefficient: 3.66

For each of the compounds below, note its activity coefficient.
1. CC(C)(C)O [2-methylpropan-2-ol] + CCCCCCCCCCCC[N+](C)(C)CCOc1ccccc1.N#C[N-]C#N
2. C#CCCC [1-pentyne] + CCCCCCCCCCCC[N+](C)(C)CCOc1ccccc1.O=S(=O)([N-]S(=O)(=O)C(F)(F)F)C(F)(F)F
3. CCOC(C)=O [ethyl acetate] + CCCCCCCCCCCC[N+](C)(C)CCOc1ccccc1.N#C[N-]C#N

Result ::
0.539
1.13
1.2

Each recorded value in this set is attributed to the NIST ThermoML archive (doi:10.1016/j.fluid.2018.09.024).
